Value source: ChEMBL document CHEMBL5223162

- PROTOCOL: Intrinsic clearance in human liver microsomes at 1 uM and measured upto 30 mins in presence of NADPH by LC-MS analysis
- Format: ADME, Microsome
- APPLIED CONDITIONS: read-out: CLH (converted)
Known CLint scaled at 1 µM of a selection of compounds
ATTRIBUTE MEASURED: CLint scaled at 1 µM

Cc1cc(CN2CCC2)cc(F)c1-c1cc2c(-c3cnn(C)c3)n[nH]c2cn1: 8.33 mL/min/kg
CNCc1cc(C)c(-c2cc3c(-c4cnn(C)c4)n[nH]c3cn2)c(F)c1: < 8.33 mL/min/kg
COc1cccc(F)c1-c1ncc2[nH]nc(-c3ccc(N4CCN(C)CC4)cc3)c2n1: > 18.3 mL/min/kg
COc1cccc(F)c1-c1cc2c(-c3ccc(N4CCN(C)CC4)cc3)n[nH]c2cn1: 18.3 mL/min/kg
CCNCc1cc(C)c(-c2cc3c(-c4cnn(C)c4)n[nH]c3cn2)c(F)c1: < 8.33 mL/min/kg
Cc1cc(C2CCCCN2)cc(F)c1-c1cc2c(-c3cnn(C)c3)n[nH]c2cn1 (stereo not drawn): < 8.33 mL/min/kg
COc1cccc(F)c1-c1ncc2[nH]nc(-c3cnn(C)c3)c2n1: 11.7 mL/min/kg
CNCc1cc(F)c(-c2cc3c(-c4cnn(C)c4)n[nH]c3cn2)c(OC)c1: < 8.33 mL/min/kg
CNCc1cc(F)c(-c2cc3c(-c4cnn(C)c4)n[nH]c3cn2)c(F)c1: < 8.33 mL/min/kg
COc1cccc(F)c1-c1cc2c(-c3cnn(C)c3)n[nH]c2cn1: 13.3 mL/min/kg
COc1cccc(F)c1-c1ccc2[nH]nc(-c3ccc(N4CCN(C)CC4)cc3)c2n1: > 18.3 mL/min/kg
CNCc1cc(F)c(-c2cc3c(-c4cnn(C)c4)n[nH]c3cn2)c(C(F)(F)F)c1: < 8.33 mL/min/kg
CNC(C)c1cc(C)c(-c2cc3c(-c4cnn(C)c4)n[nH]c3cn2)c(F)c1 (stereo not drawn): < 8.33 mL/min/kg

###

- TARGET DESC: Mitogen-activated protein kinase kinase kinase kinase 1 (Homo sapiens, UniProt Q92918)
- Sequence (Q92918 whole entry, the tested form may be a part): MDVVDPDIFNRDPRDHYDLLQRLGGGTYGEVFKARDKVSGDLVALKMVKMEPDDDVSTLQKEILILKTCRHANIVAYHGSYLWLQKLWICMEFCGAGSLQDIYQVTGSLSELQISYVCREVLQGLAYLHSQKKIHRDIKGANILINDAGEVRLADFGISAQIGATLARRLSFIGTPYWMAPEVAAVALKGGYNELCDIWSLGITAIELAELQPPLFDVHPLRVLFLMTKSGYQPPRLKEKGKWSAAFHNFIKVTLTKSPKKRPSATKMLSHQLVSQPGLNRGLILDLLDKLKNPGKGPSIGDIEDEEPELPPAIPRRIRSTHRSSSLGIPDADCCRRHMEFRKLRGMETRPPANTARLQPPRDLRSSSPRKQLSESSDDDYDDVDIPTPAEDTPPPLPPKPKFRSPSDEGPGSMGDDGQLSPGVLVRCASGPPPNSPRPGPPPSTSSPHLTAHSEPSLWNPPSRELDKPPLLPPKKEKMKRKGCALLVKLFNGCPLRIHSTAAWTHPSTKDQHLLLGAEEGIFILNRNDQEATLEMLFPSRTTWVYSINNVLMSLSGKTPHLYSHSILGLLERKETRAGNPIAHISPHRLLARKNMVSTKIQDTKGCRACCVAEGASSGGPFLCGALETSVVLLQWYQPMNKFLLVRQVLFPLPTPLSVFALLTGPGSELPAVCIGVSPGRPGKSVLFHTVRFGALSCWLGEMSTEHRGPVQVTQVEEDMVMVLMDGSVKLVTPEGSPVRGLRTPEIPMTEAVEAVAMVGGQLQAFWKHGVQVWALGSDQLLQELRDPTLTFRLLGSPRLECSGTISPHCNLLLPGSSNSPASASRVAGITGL
- PROTOCOL: Inhibition of human HPK1 in human whole blood assessed as reduction in SLP76 phosphorylation incubated for 1 hr by HTRF assay
- Assay type: tissue-based
ATTRIBUTE MEASURED: IC50 (nM)

Cc1cc(CN2CCC2)cc(F)c1-c1cc2c(-c3cnn(C)c3)n[nH]c2cn1: 302

###

- PROTOCOL: Clearance in cynomolgus monkey at 1 mg/kg, iv and measured upto 24 hrs by LC-MS/MS analysis
- Type: ADME, organism-based, Macaca fascicularis
- APPLIED CONDITIONS: in vivo
ATTRIBUTE MEASURED: clearance (mL/min/kg)

Cc1cc(CN2CCC2)cc(F)c1-c1cc2c(-c3cnn(C)c3)n[nH]c2cn1: 15.8
CNCc1cc(C)c(-c2cc3c(-c4cnn(C)c4)n[nH]c3cn2)c(F)c1: 20
CNC(C)c1cc(C)c(-c2cc3c(-c4cnn(C)c4)n[nH]c3cn2)c(F)c1 (stereo not given): 18.3
CCNCc1cc(C)c(-c2cc3c(-c4cnn(C)c4)n[nH]c3cn2)c(F)c1: 11
Cc1cc(C2CCCCN2)cc(F)c1-c1cc2c(-c3cnn(C)c3)n[nH]c2cn1 (stereo not given): 9

###

- PROTOCOL: Half life in cynomolgus monkey at 1 mg/kg, iv and measured upto 24 hrs by LC-MS/MS analysis
- Type: ADME, organism-based, Macaca fascicularis
- APPLIED CONDITIONS: in vivo
Mark 0 (no) for half-life values under 6 h, and 1 (yes) for everything at or above.

CCNCc1cc(C)c(-c2cc3c(-c4cnn(C)c4)n[nH]c3cn2)c(F)c1: 1 (yes)
Cc1cc(C2CCCCN2)cc(F)c1-c1cc2c(-c3cnn(C)c3)n[nH]c2cn1 (stereo not given): 1 (yes)
CNCc1cc(C)c(-c2cc3c(-c4cnn(C)c4)n[nH]c3cn2)c(F)c1: 0 (no)
CNC(C)c1cc(C)c(-c2cc3c(-c4cnn(C)c4)n[nH]c3cn2)c(F)c1 (stereo not given): 1 (yes)

###

Each record here notes measured Vdss.
- PROTOCOL: Volume of distribution at steady state in cynomolgus monkey at 1 mg/kg, iv and measured upto 24 hrs by LC-MS/MS analysis
- Assay type: ADME, organism-based, Macaca fascicularis
- APPLIED CONDITIONS: in vivo
ATTRIBUTE MEASURED: Vdss (L/kg)

CCNCc1cc(C)c(-c2cc3c(-c4cnn(C)c4)n[nH]c3cn2)c(F)c1: 3.9
Cc1cc(CN2CCC2)cc(F)c1-c1cc2c(-c3cnn(C)c3)n[nH]c2cn1: 4
Cc1cc(C2CCCCN2)cc(F)c1-c1cc2c(-c3cnn(C)c3)n[nH]c2cn1 (stereo not given): 4.6
CNC(C)c1cc(C)c(-c2cc3c(-c4cnn(C)c4)n[nH]c3cn2)c(F)c1 (stereo not given): 7.6
CNCc1cc(C)c(-c2cc3c(-c4cnn(C)c4)n[nH]c3cn2)c(F)c1: 4.6

###

Item-by-item account of pKi
- TARGET DESC: Mitogen-activated protein kinase kinase kinase kinase 1 (Homo sapiens, UniProt Q92918)
- PROTOCOL: Binding affinity to recombinant human HPK1 (1 to 346 residues) expressed sf9 cells incubated for 1 hr by LanthaScreen assay
pKi: −log10 of the molar value.
ATTRIBUTE MEASURED: pKi

CNCc1cc(C)c(-c2cc3c(-c4cnn(C)c4)n[nH]c3cn2)c(F)c1: 8.57
COc1cccc(F)c1-c1ncc2[nH]nc(-c3ccc(N4CCN(C)CC4)cc3)c2n1: 8.60
CCNCc1cc(C)c(-c2cc3c(-c4cnn(C)c4)n[nH]c3cn2)c(F)c1: 8.30

###

# pKi annotations
- TARGET DESC: Mitogen-activated protein kinase kinase kinase kinase 1 (Homo sapiens, UniProt Q92918)
- PROTOCOL: Binding affinity to recombinant human HPK1 (1 to 346 residues) expressed sf9 cells incubated for 1 hr by LanthaScreen assay
pKi: −log10 of the molar value.
ATTRIBUTE MEASURED: pKi

Cc1cc(C2CCCCN2)cc(F)c1-c1cc2c(-c3cnn(C)c3)n[nH]c2cn1 (stereo not given): 8.34
COc1cccc(F)c1-c1cc2c(-c3cnn(C)c3)n[nH]c2cn1: 8.70
CNCc1cc(F)c(-c2cc3c(-c4cnn(C)c4)n[nH]c3cn2)c(OC)c1: 8.52
CN1CCN(c2ccc(-c3n[nH]c4ccc(-c5ccccc5F)nc34)cc2)CC1: 7.55
CNC(C)c1cc(C)c(-c2cc3c(-c4cnn(C)c4)n[nH]c3cn2)c(F)c1 (stereo not given): 8.40
CNCc1cc(F)c(-c2cc3c(-c4cnn(C)c4)n[nH]c3cn2)c(F)c1: 8.27
CNCc1cc(F)c(-c2cc3c(-c4cnn(C)c4)n[nH]c3cn2)c(C(F)(F)F)c1: 8.46
COc1cc(OC)c(F)c(-c2ncc3c(-c4ccc(N5CCN(C)CC5)cc4)n[nH]c3n2)c1F: 7.04
COc1cccc(F)c1-c1ccc2[nH]nc(-c3ccc(N4CCN(C)CC4)cc3)c2n1: 8.52

###

Measured bioavailability values are reported for all entries that follow.
- PROTOCOL: Oral bioavailability in cynomolgus monkey at 3 mg/kg and measured upto 24 hrs by LC-MS/MS analysis
- Assay type: ADME, organism-based, Macaca fascicularis
- APPLIED CONDITIONS: in vivo
ATTRIBUTE MEASURED: bioavailability (%)

CNC(C)c1cc(C)c(-c2cc3c(-c4cnn(C)c4)n[nH]c3cn2)c(F)c1 (stereo not given): 50
CCNCc1cc(C)c(-c2cc3c(-c4cnn(C)c4)n[nH]c3cn2)c(F)c1: 16
Cc1cc(CN2CCC2)cc(F)c1-c1cc2c(-c3cnn(C)c3)n[nH]c2cn1: 96
Cc1cc(C2CCCCN2)cc(F)c1-c1cc2c(-c3cnn(C)c3)n[nH]c2cn1 (stereo not given): 55
CNCc1cc(C)c(-c2cc3c(-c4cnn(C)c4)n[nH]c3cn2)c(F)c1: 7

###

- TARGET DESC: UniProtKB P08684
- Sequence (P08684 whole entry): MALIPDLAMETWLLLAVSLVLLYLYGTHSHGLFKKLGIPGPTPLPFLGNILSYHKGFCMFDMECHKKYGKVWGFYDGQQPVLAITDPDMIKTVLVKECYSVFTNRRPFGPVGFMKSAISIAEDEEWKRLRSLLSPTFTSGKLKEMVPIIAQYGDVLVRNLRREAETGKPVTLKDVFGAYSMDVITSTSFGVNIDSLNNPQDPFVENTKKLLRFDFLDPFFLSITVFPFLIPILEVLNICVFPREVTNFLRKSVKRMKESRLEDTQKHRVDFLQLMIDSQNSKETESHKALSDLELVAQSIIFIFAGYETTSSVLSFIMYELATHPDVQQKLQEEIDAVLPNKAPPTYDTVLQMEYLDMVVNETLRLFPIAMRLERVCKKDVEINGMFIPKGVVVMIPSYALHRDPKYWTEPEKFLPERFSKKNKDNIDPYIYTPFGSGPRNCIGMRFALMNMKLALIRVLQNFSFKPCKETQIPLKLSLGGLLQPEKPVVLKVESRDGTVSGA
- PROTOCOL: Inhibition of CYP3A4 in human liver microsomes using midazolam as substrate by LC-MS analysis
- Format: ADME, Microsome
# IC50 per entry
ATTRIBUTE MEASURED: IC50

CNCc1cc(F)c(-c2cc3c(-c4cnn(C)c4)n[nH]c3cn2)c(F)c1: > 25 µM
CNCc1cc(C)c(-c2cc3c(-c4cnn(C)c4)n[nH]c3cn2)c(F)c1: > 25 µM
CNCc1cc(F)c(-c2cc3c(-c4cnn(C)c4)n[nH]c3cn2)c(C(F)(F)F)c1: > 25 µM

###

- PROTOCOL: AUC in Sprague-Dawley rat at 3 mg/kg, po and measured upto 24 hrs by LC-MS/MS analysis
- Type: ADME, organism-based
- Set-up: dose 3 mg/kg, time < 24 hrs, route po
- APPLIED CONDITIONS: in vivo
ATTRIBUTE MEASURED: AUC at 24 h (µM·h)

Cc1cc(C2CCCCN2)cc(F)c1-c1cc2c(-c3cnn(C)c3)n[nH]c2cn1 (stereo not given): 1.46
Cc1cc(CN2CCC2)cc(F)c1-c1cc2c(-c3cnn(C)c3)n[nH]c2cn1: 1.1
CNC(C)c1cc(C)c(-c2cc3c(-c4cnn(C)c4)n[nH]c3cn2)c(F)c1 (stereo not given): 0.799
CCNCc1cc(C)c(-c2cc3c(-c4cnn(C)c4)n[nH]c3cn2)c(F)c1: 0.761
CNCc1cc(C)c(-c2cc3c(-c4cnn(C)c4)n[nH]c3cn2)c(F)c1: 0.456
